Origin of measurements: ChEMBL document CHEMBL6153064

Assay: Stability in human plasma assessed as parent compound remaining measured at 300 mins
Format: ADME, cell-free
Details: read-out: Stability
Reported remaining at 5 h values follow for various molecules
Give just the numeric value; % need not be written.

Asked: Identify measured remaining at 5 h associated with `Cc1cc(/C=C/C#N)cc(C)c1Nc1ccnc(Nc2ccc(C#N)cc2)n1`
Given back: 97.4

Asked: Supply reported remaining at 5 h belonging to this molecule: `COc1cc(-c2ccc(C#N)cc2)ccc1/C(=N\N)c1ccnc(Nc2ccc(C#N)cc2)n1`
Given back: 94.7

Next up:
Asked: Please list remaining at 5 h recorded for the molecule `Cc1cc(C#N)cc(C)c1Oc1nc(Nc2ccc(C#N)cc2)nc(N)c1Br`
Given back: 78.5
